Each item that follows carries a reported growth.
Test system: UACC-62 melanoma
experiment: NCI-60 one-dose screen, 48 h (100 = growth as untreated, 0 = no growth, -100 = all killed)
conditions: 10 µM unless noted
The panel holds about 83,000 compounds, 20% with a hit somewhere; the sample as a whole holds those more often.
Response body: numeric value in %, unit text excluded.

Some solved cases for reference:
* O=C(NNc1ccccc1)c1ncc[nH]1 | 10.9
* O=[N+]([O-])c1cc(C(F)(F)F)ccc1Sc1ccc(C(F)(F)F)cc1[N+](=O)[O-] | 77.8
* CCCCSc1ccc2nc(-c3ccc(OCCCN=C(N)N)cc3)cn2c1 | 52

Reported growth, compound `COC1=CC(c2ccc[nH]2)=N/C1=C\c1[nH]c(C)c(C(=O)Oc2ccccc2)c1C` : ____
-62.8

* * *

Test system: SNB-75 CNS
experiment: NCI-60 one-dose screen, 48 h (100 = growth as untreated, 0 = no growth, -100 = all killed)
conditions: 10 µM
The panel holds about 83,000 compounds, 20% with a hit somewhere; the sample as a whole holds those more often.
Each item that follows carries a reported growth.
Response body: numeric value in %, unit text excluded.

Some solved cases for reference:
- CCN(Cc1ccccc1)c1ccc(/C=C2\COc3ccccc3C2=O)cc1: 93.2
- CC(=O)/C=C/c1ccc(OCc2ccc(Cl)cc2)cc1: 91
- CC(=O)/C=C/c1ccc(OCc2ccc(C(C)(C)C)cc2)cc1: 94.7

Moving on to another compound below.
Reported growth, compound `COc1ccc(C(=O)/C=C/c2ccc(OCc3cccc(C(F)(F)F)c3)c(OC)c2)cc1OC` : ____
93.6

* * *

Tested on: CAKI-1 renal
experiment: NCI-60 one-dose screen, 48 h (100 = growth as untreated, 0 = no growth, -100 = all killed)
conditions: 10 µM unless noted
Experimental: Growth inhibition of the CAKI-1 human tumor cell line is measured as a screen for anti-cancer activity. Cells are grown in 96 well plates and exposed to the test compound for 48 hours. Compounds are tested at a single concentration, which is 10^-5 M for most compounds. The reported endpoint is percent growth (GI% or GIPRCNT), where numbers from 0 - 100% represent growth inhibition, and numbers from -100% - 0 represent cell death. For example, a value of 40 represents 60% growth inhibition. […]
This is part of a sample that, as a whole, favours compounds with a hit. Of some 83,000 tested, about 20% had one in any assay.
Label Not met if growth falls below 20%; label Met in every other case.

- O=C1CCc2c(sc3[nH]c(=S)n(Cc4ccc(Cl)cc4)c(=O)c23)C1: Not met
- CCN(CC)CC(=O)Nc1ccc2ncnc(Nc3ccc(Oc4cccc(F)c4)c(Cl)c3)c2c1: Met
- COc1ccc(Nc2nn3c(SCC(=O)c4ccc(C)cc4)nnc3s2)cc1: Met

Does growth meet or surpass 20% for `O=c1ccc2nc(-c3ccccn3)nn(-c3ccccc3)c-2c1` ?
Met

Does growth meet or surpass 20% for C/C=C(\C)C(=O)N[C@H]1CC[C@]2(C)C3CC[C@@]4(C)C(CC[C@@H]4C(C)N(C)C)C3CCC2[C@H]1OC(C)=O (some centres undefined) ?
Not met

Does growth meet or surpass 20% for CC[C@]12CN3CCc4c([nH]c5ccccc45)[C@@](C(=O)OC)(c4cc5c(cc4OC)N(C)[C@H]4[C@@](O)(C(=O)OC)[C@H](OC(C)=O)[C@]6(CC)C=CCN7CC[C@]54[C@@H]76)CC(C3)[C@H]1O2 (some centres undefined) ?
Met

Does growth meet or surpass 20% for `Nc1n[nH]c2cccc(C#Cc3cccc(NC(=O)c4ccc(N5CCOCC5)c(C(F)(F)F)c4)c3)c12` ?
Not met

Does growth meet or surpass 20% for `COC1=CC(c2ccc[nH]2)=N/C1=C\c1[nH]c(C)c(C(=O)Oc2ccccc2)c1C` ?
Not met

Does growth meet or surpass 20% for Cc1ccc2c(c1)C(C)Cc1c(ncnc1-n1cnc3cc(C)ccc31)N2C (centres undefined) ?
Met

* * *

Test system: OVCAR-5 ovarian
experiment: NCI-60 one-dose screen, 48 h (100 = growth as untreated, 0 = no growth, -100 = all killed)
conditions: 10 µM unless noted
About 83,000 compounds went through this panel and 20% of them were active in at least one assay; those are over-represented in the sample as a whole.
Each item that follows carries a reported growth.
Response body: numeric value in %, unit text excluded.

- N#C/C(=C\c1ccccc1Cl)c1cc2ccccc2[nH]1: 95.8
- CCOC(=O)C1=C(C)N=C2SC=C(c3ccc(F)cc3)N2[C@H]1c1cn(-c2ccccc2)nc1-c1ccc(Cl)cc1: 91.9
- COc1ccc(/C=C2\COc3ccc(O)c(O)c3C2=O)c(OC)c1OC: 36.2
- O=C1OCC2=C1C(c1cccc([N+](=O)[O-])c1)c1cc3c(cc1N2CCO)CCC3 (stereo not given): 43.5
- O=C1Nc2ccccc2/C1=C/c1cccn1CCCCCn1c2ccccc2c(=O)c2ccccc21: 82.6
- N#CC1=C(N)Oc2c(sc3c(Br)cccc23)C1c1ccccn1 (stereo not given): 72
- COc1ccc(Oc2nc(Nc3ccc(N4CCOCC4)cc3)ncc2NC(=O)c2cccc(C(F)(F)F)c2)cc1: 111
- COc1ccccc1/C=C1\COc2ccc(O)c(O)c2C1=O: 28.3

Form: Entry = `O=C(NNc1ccccc1)c1ncc[nH]1` | System = OVCAR-5 ovarian | growth = ____
65.3

Form: Entry = `COc1ccc(CCNC(=O)COc2cc3c(Nc4ccc(F)c(Cl)c4)ncnc3cc2OC)cc1OC` | System = OVCAR-5 ovarian | growth = ____
65.4

Form: Entry = `COc1ccc2c(O)c(/C=C3\N=Nc4nc(C)ccc43)oc2c1CC1CCNCC1` | System = OVCAR-5 ovarian | growth = ____
65

Form: Entry = `CC(=O)c1c(C)nc(SCC(=O)Nc2ccc(Cl)cc2)n1-c1ccc(Cl)cc1` | System = OVCAR-5 ovarian | growth = ____
99.1

Form: Entry = `CC(=O)OC[C@]12CCC(C)(C)C=C1[C@H]1CC[C@@H]3[C@@]4(C)CCCNC(C)(C)[C@@H]4CC[C@@]3(C)[C@]1(C)CC2` | System = OVCAR-5 ovarian | growth = ____
96.7

Form: Entry = `Cc1ccc(-c2nc(C#N)c(S(=O)(=O)N(C)C)o2)cc1` | System = OVCAR-5 ovarian | growth = ____
97.7

Form: Entry = `CC1(C)C(N)=Nc2cc(OCCCCN3Cc4ccccc4C3)c(OCC3CC3)cc21` | System = OVCAR-5 ovarian | growth = ____
80.3

Form: Entry = `COc1ccc(-c2ccc(-c3ccc(C(=N)N)cn3)o2)cc1Cl` | System = OVCAR-5 ovarian | growth = ____
68.6

Form: Entry = `OCc1cc(CN2CCCCC2)c(O)c2ncccc12` | System = OVCAR-5 ovarian | growth = ____
59.1

Form: Entry = `COc1ccc2c(c1)c(-c1nc(-c3c[nH]c4c(Cl)nccc34)cs1)cn2C` | System = OVCAR-5 ovarian | growth = ____
57.4

Form: Entry = O=C(CN1C(=O)S/C(=C\C(Cl)=C\c2ccccc2)C1=O)NC1C=CS(=O)(=O)C1 (stereo not given) | System = OVCAR-5 ovarian | growth = ____
44.2

Form: Entry = `Clc1ccc(Nc2nc(Nc3ccc(Cl)cc3)nc(Nc3ccc(-c4cc(-c5cccc(Cl)c5)on4)cc3)n2)cc1` | System = OVCAR-5 ovarian | growth = ____
71.4

* * *

Test system: SW-620 colon
experiment: NCI-60 one-dose screen, 48 h
conditions: 10 µM unless noted
About 83,000 compounds went through this panel and 20% of them were active in at least one assay; those are over-represented in the sample as a whole. The source made the active and inactive calls. The calls were made as follows: active = growth percent below 10; inactive = the rest.
Your answer must be one of the following: active, inactive

Illustrative cases are given below, each with its answer.
* O=c1cc(N/N=C/c2ccc(F)cc2)c2cc(Cl)ccc2[nH]1 | inactive
* Cc1ccc(-c2nc3nc(-c4ccc(Br)cc4)nc(N4CCCNCC4)c3o2)cc1 | active
* N=C(N)c1ccc(-c2ccc(-c3ccc(F)cc3)s2)nc1 | inactive
* C[C@@H]1CC[C@@H]2[C@@H]1[C@H](OC(=O)/C=C/c1ccccc1)[C@]1(c3ccccc3)C[C@@H](NC(=O)CO)[C@@]2(C)O1 | inactive
* O=C(NCCCN1CCCCC1)c1ccc(-c2nc3ccc4[nH]ncc4c3c3c2CCCC3)cc1 | inactive

How was `Nc1ncc(-c2ccc3ncnc(N4CCc5ccc(Cl)cc54)c3c2)cc1C(F)(F)F` classified in this test?
inactive

How was `CCC(=C(c1ccc(OCCCN(C)C)cc1)c1ccc(OCCCN(C)C)cc1)c1ccc(Cl)cc1` classified in this test?
active

* * *

System: LOX IMVI melanoma
experiment: NCI-60 one-dose screen, 48 h (100 = growth as untreated, 0 = no growth, -100 = all killed)
conditions: 10 µM unless noted
Experimental: Growth inhibition of the LOX IMVI human tumor cell line is measured as a screen for anti-cancer activity. Cells are grown in 96 well plates and exposed to the test compound for 48 hours. Compounds are tested at a single concentration, which is 10^-5 M for most compounds. The reported endpoint is percent growth (GI% or GIPRCNT), where numbers from 0 - 100% represent growth inhibition, and numbers from -100% - 0 represent cell death. For example, a value of 40 represents 60% growth inhibition. […]
About 83,000 compounds went through this panel and 20% of them were active in at least one assay; those are over-represented in the sample as a whole.
Each item that follows carries a reported growth.
Response body: numeric value in %, unit text excluded.

Some solved cases for reference:
• C[C@@H]1O[C@@H](O[C@H]2[C@@H](OC(=O)[C@]34CCC(C)(C)C[C@H]3C3=CC[C@@H]5[C@@]6(C)C[C@H](O)[C@H](O[C@@H]7O[C@H](CO)[C@@H](O)[C@H](O)[C@H]7O)[C@@](C)(CO)[C@@H]6CC[C@@]5(C)[C@]3(C)C[C@H]4O)OC[C@@H](O)[C@@H]2O)[C@H](O)[C@H](O[C@@H]2OC[C@@H](O)[C@H](O[C@@H]3OC[C@](O)(CO)[C@H]3O[C@@H]3OC[C@@H](O)[C@H](O)[C@H]3O)[C@H]2O)[C@H]1O[C@@H]1OC[C@](O)(CO)[C@H]1O = 81.3
• C[N+]1=C(/C=C\C=C\c2ccccc2)C(C)(C)c2ccccc21 = 12.6
• Oc1ccccc1C=Nc1ccc(N2CCN(c3ccccc3)CC2)cc1 = 98.5
• Nc1ccc(-c2nc3ccc4[nH]ncc4c3c3c2CCCC3)cc1F = 29.4

Form: Entry = `CCN(C(=O)N1CCN(c2cc3c(cc2F)c(=O)c(C(=O)O)cn3C2CC2)CC1)c1nc(-c2ccccc2)cs1` | System = LOX IMVI melanoma | growth = ____
-11.1

Form: Entry = COc1ccc(C2Nc3nc(SC)nc(N)c3N=C3c4ccccc4CCC32)cc1 (stereo not given) | System = LOX IMVI melanoma | growth = ____
89.9

Form: Entry = `COc1cc(-c2nn(-c3cccc(NC(=O)CCN4CCN(C)CC4)c3)cc2-c2ccncc2)ccc1Cl` | System = LOX IMVI melanoma | growth = ____
-16

Form: Entry = `N#C/C(=C\c1ccc(Br)cc1)n1nnc2c(F)cccc21` | System = LOX IMVI melanoma | growth = ____
-69.1

Form: Entry = `CCCc1cc(C(N)=S)ccn1` | System = LOX IMVI melanoma | growth = ____
96.7

Form: Entry = `FC(F)(F)Sc1ccc(/C=C/c2cc(/C=C/c3ccc(SC(F)(F)F)cc3)n(-c3ccccc3)n2)cc1` | System = LOX IMVI melanoma | growth = ____
97.1
